Assay: Inhibition of quorum sensing system in Pseudomonas aeruginosa MH602 PlasB::gfp at 250 uM incubated for 15 hrs by GFP reporter gene assay
Label scheme for inhibition: lower than 60% is class 0, 60% and above is class 1.

C=C1C(c2ccccc2F)=CC(=O)N1c1cccc(Cl)c1 = class 1

Ask | In plain terms: is recorded inhibition at least 60% for C=C1C(c2ccc(Br)cc2)=CC(=O)N1c1ccc(Cl)cc1 ?
Reply | class 0

Ask | In plain terms: is recorded inhibition at least 60% for C=C1C(c2ccc(Br)cc2)=CC(=O)N1c1cccc(Br)c1 ?
Reply | class 1

Ask | In plain terms: is recorded inhibition at least 60% for O=C1C=C(c2cccc(F)c2)CN1 ?
Reply | class 1

Ask | In plain terms: is recorded inhibition at least 60% for C=C1NC(=O)C=C1c1ccc(Cl)cc1 ?
Reply | class 1

Ask | In plain terms: is recorded inhibition at least 60% for C=C1NC(=O)C(C)=C1c1cccc(C(F)(F)F)c1 ?
Reply | class 0

Ask | In plain terms: is recorded inhibition at least 60% for C=C1NC(=O)C=C1c1ccc(F)cc1 ?
Reply | class 1

Ask | In plain terms: is recorded inhibition at least 60% for C=C1C(c2ccc(Br)cc2)=CC(=O)N1c1ccc(OC)cc1 ?
Reply | class 1

* * *

Assay: Inhibition of quorum sensing system in Pseudomonas aeruginosa MH602 PlasB::gfp at 250 uM incubated for 15 hrs by GFP reporter gene assay
observed.property: inhibition (%)
Hi! Could you send only the number? It should be in %, unit omitted.

Example compounds with recorded inhibition:
C=C1NC(=O)C=C1c1ccc(C(=O)O)cc1 = 68
C=C1NC(=O)C=C1c1ccc(CC)cc1 = 67.9
C=C1C(c2ccccc2F)=CC(=O)N1c1cccc(Br)c1 = 50.5
C=C1C(c2ccc(Br)cc2)=CC(=O)N1c1csc2ccccc12 = 67.4
C=C1C(c2ccc(Br)cc2)=CC(=O)N1c1ccc(F)cc1 = 57.9

Ask | Which measured inhibition value corresponds to O=C1C=C(c2ccccc2)/C(=C/Br)N1 ?
Reply | 84.8

Ask | Which measured inhibition value corresponds to C=C1NC(=O)C=C1c1cccc(C(F)(F)F)c1 ?
Reply | 74.4

Ask | Which measured inhibition value corresponds to C=C1NC(=O)C=C1c1ccccc1F ?
Reply | 72

Ask | Which measured inhibition value corresponds to O=C1C=C(c2ccc(F)cc2)CN1 ?
Reply | 63

Ask | Which measured inhibition value corresponds to C=C1C(c2ccc(Br)cc2)=CC(=O)N1c1ccccc1 ?
Reply | 78.6

Ask | Which measured inhibition value corresponds to C=C1NC(=O)C=C1c1ccccc1 ?
Reply | 71.5

Ask | Which measured inhibition value corresponds to O=C1C=C(c2ccsc2)CN1 ?
Reply | 72.1

Ask | Which measured inhibition value corresponds to C=C1NC(=O)C=C1c1ccc(OC)cc1 ?
Reply | 74.4

Ask | Which measured inhibition value corresponds to C=C1C(c2ccccc2F)=CC(=O)N1Cc1ccccc1 ?
Reply | 55.2

Ask | Which measured inhibition value corresponds to O=C1C=C(c2ccccc2F)CN1 ?
Reply | 67.9

Ask | Which measured inhibition value corresponds to C=C1C(c2ccc(Br)cc2)=CC(=O)N1c1ccsc1 ?
Reply | 86

* * *

Experiment: Inhibition of quorum sensing system in Pseudomonas aeruginosa MH602 PlasB::gfp at 125 uM incubated for 15 hrs by GFP reporter gene assay
observed.property: inhibition (%)
Hi! Could you send only the number? It should be in %, unit omitted.

C=C1NC(=O)C=C1c1ccccc1 = 59

Ask | Which measured inhibition value corresponds to C=C1NC(=O)C(C)=C1c1ccc(F)cc1 ?
Reply | 59.9

Ask | Which measured inhibition value corresponds to O=C1C=C(c2ccccc2)CN1 ?
Reply | 60.8

Ask | Which measured inhibition value corresponds to C=C1C(c2ccc(Br)cc2)=CC(=O)N1c1ccc(OC)cc1 ?
Reply | 61.8

Ask | Which measured inhibition value corresponds to C=C1NC(=O)C=C1c1ccc(CC)cc1 ?
Reply | 59.6
